Biological target: ATP-dependent translocase ABCB1 (Homo sapiens)
Sequence (P08183 whole entry): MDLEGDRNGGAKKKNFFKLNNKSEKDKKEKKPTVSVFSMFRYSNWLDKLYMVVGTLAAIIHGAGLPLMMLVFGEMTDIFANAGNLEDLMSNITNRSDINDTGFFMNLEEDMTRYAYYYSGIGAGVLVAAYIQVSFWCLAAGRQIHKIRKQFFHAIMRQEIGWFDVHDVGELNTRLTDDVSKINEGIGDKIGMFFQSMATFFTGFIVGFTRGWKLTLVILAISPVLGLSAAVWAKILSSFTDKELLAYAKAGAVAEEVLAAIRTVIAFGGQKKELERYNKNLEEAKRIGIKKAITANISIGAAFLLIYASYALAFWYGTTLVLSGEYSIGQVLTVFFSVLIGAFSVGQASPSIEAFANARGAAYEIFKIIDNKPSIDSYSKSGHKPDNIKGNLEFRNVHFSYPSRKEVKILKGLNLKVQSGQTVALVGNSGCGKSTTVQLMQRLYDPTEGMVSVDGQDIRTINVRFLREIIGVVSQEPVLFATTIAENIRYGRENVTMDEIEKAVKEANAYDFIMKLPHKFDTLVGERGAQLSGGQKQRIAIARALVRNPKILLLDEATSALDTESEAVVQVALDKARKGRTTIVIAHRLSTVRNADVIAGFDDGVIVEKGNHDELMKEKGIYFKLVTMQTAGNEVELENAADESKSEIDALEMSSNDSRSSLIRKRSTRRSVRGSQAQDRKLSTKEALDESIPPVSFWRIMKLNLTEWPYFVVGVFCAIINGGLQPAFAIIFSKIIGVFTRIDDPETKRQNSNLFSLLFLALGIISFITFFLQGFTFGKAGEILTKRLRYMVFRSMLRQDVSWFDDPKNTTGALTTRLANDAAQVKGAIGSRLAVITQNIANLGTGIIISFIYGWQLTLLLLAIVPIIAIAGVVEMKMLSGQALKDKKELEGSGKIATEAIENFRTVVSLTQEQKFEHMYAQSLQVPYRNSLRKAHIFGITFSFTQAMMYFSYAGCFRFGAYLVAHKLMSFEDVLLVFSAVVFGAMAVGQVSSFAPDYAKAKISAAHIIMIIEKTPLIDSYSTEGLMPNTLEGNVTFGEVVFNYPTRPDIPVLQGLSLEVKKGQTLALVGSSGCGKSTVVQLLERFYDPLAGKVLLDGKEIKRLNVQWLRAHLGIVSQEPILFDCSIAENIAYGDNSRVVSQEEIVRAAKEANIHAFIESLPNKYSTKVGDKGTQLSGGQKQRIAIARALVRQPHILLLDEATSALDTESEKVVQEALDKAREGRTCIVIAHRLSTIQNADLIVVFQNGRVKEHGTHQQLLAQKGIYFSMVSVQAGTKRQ
Experiment: Inhibition of P-glycoprotein expressed in MDR CCRF vcr1000 cells by daunorubicin efflux assay
pEC50: −log10 of the molar value.
If the reported pEC50 equals or exceeds 6, assign true (1). If not, assign false (0).

Please review the following examples before continuing.
CC(C)(C)c1ccc(CSc2nc3ccc(NC(=O)c4ccc(C(C)(C)C)cc4)cc3s2)cc1 : false (0)
COc1ccc(-n2c(C3=NNC(=O)CC3)n[nH]c2=S)cc1 : false (0)
COC(CCc1ccccc1)c1ccccc1OCC(O)CN1CCOCC1 (configuration not stated) : false (0)
O=C(CCc1ccccc1)c1cc(O)ccc1OCC(O)CN1CCCCC1 (configuration not stated) : false (0)
CCOC(=O)COc1ccccc1C(=O)CCc1ccccc1 : false (0)
O=C(CCc1ccccc1)c1ccccc1OCCCCCN1CCCCC1 : true (1)

For this molecule, is measured pEC50 6 or higher? CC1c2ccccc2OC1C(=O)N1CCCCC1 (configuration not stated) false (0)

For this molecule, is measured pEC50 6 or higher? COc1ccccc1N1CCN(CC(O)COc2ccccc2C(=O)CCc2ccccc2)CC1 (configuration not stated) true (1)

For this molecule, is measured pEC50 6 or higher? O=C(CCc1ccccc1)c1cc(OCc2ccccc2)ccc1OCC(O)CN1CCN(Cc2ccccc2)CC1 (configuration not stated) true (1)

For this molecule, is measured pEC50 6 or higher? O=C1CCc2c(OCC(O)CN3CCCCC3)cccc21 (configuration not stated) false (0)

Data provenance: ChEMBL document CHEMBL1142990
